Source: ChEMBL document CHEMBL3352254

# TESTED SYSTEM: Hepatocyte growth factor activator serine protease (Homo sapiens)
# Sequence (whole entry): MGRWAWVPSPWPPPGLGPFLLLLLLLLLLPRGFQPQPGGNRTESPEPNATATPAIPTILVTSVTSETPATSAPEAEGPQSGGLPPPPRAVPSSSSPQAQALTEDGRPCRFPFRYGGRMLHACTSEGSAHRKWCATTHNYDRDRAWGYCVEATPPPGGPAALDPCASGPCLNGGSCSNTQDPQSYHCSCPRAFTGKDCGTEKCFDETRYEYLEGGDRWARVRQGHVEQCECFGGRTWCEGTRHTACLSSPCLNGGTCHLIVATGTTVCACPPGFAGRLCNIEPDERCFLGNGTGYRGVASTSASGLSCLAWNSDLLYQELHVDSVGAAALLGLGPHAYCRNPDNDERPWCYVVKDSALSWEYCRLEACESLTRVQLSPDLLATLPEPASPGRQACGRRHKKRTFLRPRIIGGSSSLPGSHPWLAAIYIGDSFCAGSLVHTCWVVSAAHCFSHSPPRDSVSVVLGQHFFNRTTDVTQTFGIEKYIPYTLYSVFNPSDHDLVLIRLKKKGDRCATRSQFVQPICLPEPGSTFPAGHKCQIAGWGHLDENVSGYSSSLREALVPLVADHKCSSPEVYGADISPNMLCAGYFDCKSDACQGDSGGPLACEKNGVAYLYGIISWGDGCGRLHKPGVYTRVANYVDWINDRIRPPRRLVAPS
# PROTOCOL: Inhibition of recombinant HGFA (unknown origin)-mediated proteolytic activation of pro-MSP after 1 hr by immunoblotting
OBSERVED PROPERTY: inhibition

>>> result("CC(=O)N[C@@H](CCCCN)C(=O)N[C@@H](CCCNC(=N)N)C(=O)N[C@@H](CC(C)C)C(=O)N[C@@H](CCCNC(=N)N)C(=O)c1nccs1")
"Dose-dependent effect"
>>> result("CC(=O)N[C@@H](CCCCN)C(=O)N[C@@H](CCC(N)=O)C(=O)N[C@@H](CC(C)C)C(=O)N[C@@H](CCCNC(=N)N)C(=O)c1nccs1")
"Dose-dependent effect"
>>> result("CC(=O)N[C@@H](Cc1c[nH]c2ccccc12)C(=O)N[C@@H](CCCNC(=N)N)C(=O)N[C@@H](CC(C)C)C(=O)N[C@@H](CCCNC(=N)N)C(=O)c1nccs1")
"Dose-dependent effect"
>>> result("CC(=O)N[C@@H](CO)C(=O)N[C@@H](CCCNC(=N)N)C(=O)N[C@@H](CC(C)C)C(=O)N[C@@H](CCCNC(=N)N)C(=O)c1nccs1")
"Dose-dependent effect"

====

# TESTED SYSTEM: Suppressor of tumorigenicity 14 protein (Homo sapiens, UniProt Q9Y5Y6)
# Sequence (Q9Y5Y6 whole entry): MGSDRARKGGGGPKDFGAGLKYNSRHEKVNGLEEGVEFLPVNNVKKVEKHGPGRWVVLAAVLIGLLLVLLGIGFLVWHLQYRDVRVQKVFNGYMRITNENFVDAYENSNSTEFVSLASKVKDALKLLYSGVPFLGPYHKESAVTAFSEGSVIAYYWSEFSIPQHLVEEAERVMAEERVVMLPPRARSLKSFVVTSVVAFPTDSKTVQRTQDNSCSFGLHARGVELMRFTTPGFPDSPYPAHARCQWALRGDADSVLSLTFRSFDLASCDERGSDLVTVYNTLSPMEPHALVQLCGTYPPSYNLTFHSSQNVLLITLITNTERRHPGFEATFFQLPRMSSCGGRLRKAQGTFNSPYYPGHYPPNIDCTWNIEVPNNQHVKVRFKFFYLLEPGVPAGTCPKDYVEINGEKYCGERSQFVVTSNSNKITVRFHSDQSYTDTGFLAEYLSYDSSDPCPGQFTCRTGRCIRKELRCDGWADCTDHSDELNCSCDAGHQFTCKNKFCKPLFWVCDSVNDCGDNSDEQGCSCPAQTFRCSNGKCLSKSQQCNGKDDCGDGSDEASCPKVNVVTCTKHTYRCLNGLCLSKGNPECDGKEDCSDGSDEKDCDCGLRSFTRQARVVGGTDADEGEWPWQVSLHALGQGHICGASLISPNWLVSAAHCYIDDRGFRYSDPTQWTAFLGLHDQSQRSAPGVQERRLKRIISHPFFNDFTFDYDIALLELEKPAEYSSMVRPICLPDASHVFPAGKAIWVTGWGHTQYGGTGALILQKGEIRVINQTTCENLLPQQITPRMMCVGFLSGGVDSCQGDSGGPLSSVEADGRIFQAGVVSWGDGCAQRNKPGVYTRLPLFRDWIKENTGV
Consider the following molecules and their measured Ki readings.
OBSERVED PROPERTY: Ki

>>> result("CC(=O)N[C@@H](CCCCN)C(=O)N[C@@H](Cc1cnc[nH]1)C(=O)N[C@@H](CC(C)C)C(=O)N[C@@H](CCCNC(=N)N)C(=O)c1nccs1")
"22 nM"
>>> result("CC(=O)N[C@@H](Cc1c[nH]c2ccccc12)C(=O)N[C@@H](CCC(N)=O)C(=O)N[C@@H](CC(C)C)C(=O)N[C@@H](CCCNC(=N)N)C(=O)c1nccs1")
"32 nM"

====

# TESTED SYSTEM: Serine protease hepsin (Homo sapiens)
# Sequence (P05981 1-162 limits assumed): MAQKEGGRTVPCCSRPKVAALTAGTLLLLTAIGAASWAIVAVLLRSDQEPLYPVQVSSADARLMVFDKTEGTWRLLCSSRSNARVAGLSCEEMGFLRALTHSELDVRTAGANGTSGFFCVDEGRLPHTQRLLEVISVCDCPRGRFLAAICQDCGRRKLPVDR
# Sequence (P05981 163-417 limits assumed): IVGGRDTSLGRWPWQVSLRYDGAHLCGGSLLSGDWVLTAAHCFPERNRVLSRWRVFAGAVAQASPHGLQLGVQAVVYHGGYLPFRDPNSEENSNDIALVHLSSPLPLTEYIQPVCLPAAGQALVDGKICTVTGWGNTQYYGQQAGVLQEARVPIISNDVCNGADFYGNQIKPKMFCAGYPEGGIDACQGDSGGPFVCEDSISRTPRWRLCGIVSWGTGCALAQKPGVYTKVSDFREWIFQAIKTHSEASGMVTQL
# PROTOCOL: Inhibition of recombinant hepsin (unknown origin) using Boc-QAR-AMC as substrate by fluorescence assay
OBSERVED PROPERTY: Ki (nM)

>>> number("CC(=O)N[C@@H](CCCCN)C(=O)N[C@@H](CCC(N)=O)C(=O)N[C@@H](CC(C)C)C(=O)N[C@@H](CCCNC(=N)N)C(=O)c1nccs1")
0.22
